TEST_DETAILS: Cytotoxicity against Wistar rat splenocytes assessed as cell viability at 100 uM after 48 hrs by MTT assay relative to control
Type: tissue-based, Splenocyte
MEASUREMENT_PARAMETERS: read-out: Activity
METRIC_NAME: viability at 48 h, 100 µM
Provide a numeric answer, followed by its unit.

Task item: Item C[C@@H]1/C=C/C(C)(C)[C@H](O)CC/C(CO)=C/CC1 (relative stereo) has what recorded viability at 48 h, 100 µM?
Reply: 60%
